# key: entry, value: Emax, cell killing of LS174T cells
target-or-system: T1, human CEA on cells (MKN45, LOVO, NCI-H2122, LS174T, CT26/CEA) (human, UniProt P06731 35-685)
T1 sequence: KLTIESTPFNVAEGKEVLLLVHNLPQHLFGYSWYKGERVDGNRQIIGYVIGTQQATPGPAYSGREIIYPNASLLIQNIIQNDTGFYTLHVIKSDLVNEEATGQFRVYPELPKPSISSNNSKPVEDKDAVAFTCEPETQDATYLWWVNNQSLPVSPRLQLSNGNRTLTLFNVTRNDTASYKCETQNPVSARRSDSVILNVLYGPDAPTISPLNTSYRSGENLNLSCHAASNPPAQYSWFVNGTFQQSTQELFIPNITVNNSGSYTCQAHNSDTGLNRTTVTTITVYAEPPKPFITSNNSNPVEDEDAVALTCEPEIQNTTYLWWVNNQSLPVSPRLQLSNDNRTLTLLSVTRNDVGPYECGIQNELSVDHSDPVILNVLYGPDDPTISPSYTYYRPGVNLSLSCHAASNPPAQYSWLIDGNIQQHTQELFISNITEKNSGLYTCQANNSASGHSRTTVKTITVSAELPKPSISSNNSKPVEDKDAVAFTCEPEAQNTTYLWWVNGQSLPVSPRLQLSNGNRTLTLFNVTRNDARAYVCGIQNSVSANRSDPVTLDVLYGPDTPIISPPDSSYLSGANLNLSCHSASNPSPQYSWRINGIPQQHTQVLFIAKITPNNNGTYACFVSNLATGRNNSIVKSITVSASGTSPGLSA
measurement-description: cell-based or functional assay

binder	Emax, cell killing of LS174T cells
BGA7413 (antibody, human IgG1, kappa, V domains shown, linker-payload conjugated after reduction of the antibody, DAR 8 profile (structure only as a drawing in Table 18)) VH: QVQLVQSGAEVKKPGASVKVSCKASGYIFTSYYLHWVRQAPGQGLEWIGYINPQTGKTSYAQKFQGRVTMTRDTSTSTVYMELSSLRSEDTAVYYCAREYGNYNYPLDYWGQGTLVTVSS VL: DIQMTQSPSSLSASVGDRVTITCRASENQYGYLAWYQQKPGKVPKLLIYNYKNLVEGVPSRFSGSGSGTDFTLTISSLQPEDVATYYCQHHLGTPYTFGQGTKVEIKR	66.9
BGA9962 (antibody, human IgG1, kappa, V domains shown, linker-payload conjugated after reduction of the antibody, DAR 8 (structure only as a drawing in Table 18)) VH: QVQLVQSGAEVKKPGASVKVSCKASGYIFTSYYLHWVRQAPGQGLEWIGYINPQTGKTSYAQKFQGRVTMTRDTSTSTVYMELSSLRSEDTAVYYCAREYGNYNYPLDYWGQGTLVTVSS VL: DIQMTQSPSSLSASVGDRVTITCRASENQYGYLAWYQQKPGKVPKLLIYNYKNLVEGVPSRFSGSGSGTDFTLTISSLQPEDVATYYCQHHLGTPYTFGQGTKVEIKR	66.7
BGA2490 (antibody, human IgG1, kappa, V domains shown, linker-payload conjugated after reduction of the antibody, DAR 8 profile (structure only as a drawing in Table 18)) VH: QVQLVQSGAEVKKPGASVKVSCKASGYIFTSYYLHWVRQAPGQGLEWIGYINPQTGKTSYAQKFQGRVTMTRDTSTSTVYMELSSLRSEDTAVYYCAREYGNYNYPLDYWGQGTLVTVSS VL: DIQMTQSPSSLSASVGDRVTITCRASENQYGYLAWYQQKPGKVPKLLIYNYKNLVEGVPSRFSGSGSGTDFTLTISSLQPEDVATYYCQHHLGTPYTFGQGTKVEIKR	70.3
